So I've got a bunch of binders here, and I need their kon values.
Target: T1, human GPC3-His protein (human, UniProt P51654 25-559)
T1 construct: also called human GPC3 protein; not shown: His tag
Assay: SPR, antibody captured on Protein A chip, human GPC3-His analyte;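 further: measured at 25 °C flow cell, human GPC3-His injected at five concentrations up to 200 nM, 240 s association, up to 600 s dissociation, double-referenced, fitted to Langmuir 1:1 model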
I only need the number, in M⁻¹ s⁻¹, no unit after it.

Reported kon, binder F3.54.12 (antibody, human IgG1, kappa, V domains shown, Human-murine chimeric antibody) VH: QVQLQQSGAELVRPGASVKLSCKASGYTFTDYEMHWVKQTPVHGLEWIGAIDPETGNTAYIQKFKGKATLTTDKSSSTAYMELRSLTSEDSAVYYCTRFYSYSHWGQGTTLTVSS VL: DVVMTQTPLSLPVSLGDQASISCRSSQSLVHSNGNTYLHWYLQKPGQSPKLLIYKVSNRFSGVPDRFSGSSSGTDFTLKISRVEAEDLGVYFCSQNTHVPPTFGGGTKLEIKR : ____
275000

State the recorded kon for this entry: F1.57.21 (antibody, human IgG1, kappa, V domains shown, Human-murine chimeric antibody) VH: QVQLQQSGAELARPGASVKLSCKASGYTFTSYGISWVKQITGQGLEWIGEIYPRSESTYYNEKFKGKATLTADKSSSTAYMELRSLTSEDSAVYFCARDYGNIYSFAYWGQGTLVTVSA VL: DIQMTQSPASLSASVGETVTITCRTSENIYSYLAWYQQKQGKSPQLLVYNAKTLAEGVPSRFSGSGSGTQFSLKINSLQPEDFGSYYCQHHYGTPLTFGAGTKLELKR
131000

Need kon, item F1.145.22 (antibody, human IgG1, kappa, V domains shown, Human-murine chimeric antibody) VH: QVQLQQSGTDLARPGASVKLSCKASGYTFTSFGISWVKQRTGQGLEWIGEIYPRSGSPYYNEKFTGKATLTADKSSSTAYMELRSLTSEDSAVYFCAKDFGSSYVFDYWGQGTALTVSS VL: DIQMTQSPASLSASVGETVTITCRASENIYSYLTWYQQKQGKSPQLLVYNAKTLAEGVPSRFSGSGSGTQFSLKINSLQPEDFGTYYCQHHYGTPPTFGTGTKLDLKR
218000

Recorded kon for F1.9.19 (antibody, human IgG1, kappa, V domains shown, Human-murine chimeric antibody) VH: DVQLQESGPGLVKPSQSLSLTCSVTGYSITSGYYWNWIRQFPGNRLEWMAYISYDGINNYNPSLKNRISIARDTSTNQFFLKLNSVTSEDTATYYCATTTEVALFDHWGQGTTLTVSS VL: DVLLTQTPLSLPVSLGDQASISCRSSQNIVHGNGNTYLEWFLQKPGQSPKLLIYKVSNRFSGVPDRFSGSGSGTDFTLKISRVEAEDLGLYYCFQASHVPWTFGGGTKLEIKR , please?
34700

Any idea what its kon is? The binder is F1.118.4 (antibody, human IgG1, kappa, V domains shown, Human-murine chimeric antibody) VH: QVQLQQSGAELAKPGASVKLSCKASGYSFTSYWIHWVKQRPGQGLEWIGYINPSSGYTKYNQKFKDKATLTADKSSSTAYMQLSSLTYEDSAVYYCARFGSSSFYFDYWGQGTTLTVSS VL: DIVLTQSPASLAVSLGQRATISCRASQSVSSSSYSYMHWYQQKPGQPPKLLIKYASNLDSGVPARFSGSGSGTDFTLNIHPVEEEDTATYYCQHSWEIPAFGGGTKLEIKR
251000
